Every entry's value here was drawn from the supplement of paper PMC10567573.

B1: GFOD1 (parent)
chain: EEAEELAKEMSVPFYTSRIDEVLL

# Variants of: B1
# TEST DETAILS: protein stability index of a GFP-peptide fusion (GPS, HEK-293T) (PSI 1-6); higher = more stable;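 note: lentivirally expressed fusions sorted by FACS into six bins by GFP to DsRed ratio, PSI derived from sequencing read proportions per bin multiplied by bin number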
# APPLIED CONDITIONS: c terminus: a fixed tail appended
Recorded protein stability index for the following variants
Respond with the number and no other words.

Please review the entries below; each comes with its answer.
ITEM SEQUENCE	protein stability index
EEAEELDKEMSVPFYTSRIDEVLL	4.62
EEAEELAKEMSVPLYTSRIDEVLL	3.79
EEAEELAAEMSVPFYTSRIDEVLL	3.66
EEAEELANEMSVPFYTSRIDEVLL	3.39
EEAEELAKEMSVPFYTSHIDEVLL	4.57
EEAEELAKEMSVPFYTSRIDECLL	3.7

Shifting focus to the variant that follows.
Quote protein stability index reported for EEAEELAKEMSVPFYTSRIDEQLL please.
4.65
